# Subject Of Test: AtNRT1.1 (Arabidopsis thaliana)
# Method Description: biochemical
Metric Name: Kd (mM)
Form entry: value (mM) — number only.

[in] Look up Kd: O=[N+]([O-])O [nitrate]
[out] 1

----------
# Subject Of Test: UniProtKB Q05085
# Sequence (Q05085 1-590): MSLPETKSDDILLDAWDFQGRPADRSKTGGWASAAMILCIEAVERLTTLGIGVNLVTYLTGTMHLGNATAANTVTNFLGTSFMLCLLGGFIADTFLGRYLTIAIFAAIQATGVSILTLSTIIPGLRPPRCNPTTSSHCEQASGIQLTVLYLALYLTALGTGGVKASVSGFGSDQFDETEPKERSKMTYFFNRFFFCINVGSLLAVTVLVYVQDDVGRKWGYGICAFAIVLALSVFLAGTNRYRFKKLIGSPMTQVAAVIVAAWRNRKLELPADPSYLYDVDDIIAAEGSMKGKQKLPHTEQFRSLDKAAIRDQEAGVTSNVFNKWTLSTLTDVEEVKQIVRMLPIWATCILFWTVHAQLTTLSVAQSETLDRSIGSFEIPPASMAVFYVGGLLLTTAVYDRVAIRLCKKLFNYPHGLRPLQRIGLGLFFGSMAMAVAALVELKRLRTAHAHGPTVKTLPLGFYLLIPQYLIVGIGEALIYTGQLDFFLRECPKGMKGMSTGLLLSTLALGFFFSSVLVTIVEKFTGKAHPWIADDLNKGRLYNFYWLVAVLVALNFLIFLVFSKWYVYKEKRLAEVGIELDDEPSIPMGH
# Method Description: microscale thermophoresis
# Assay type: binding
pKd: −log10 of the molar value.
Metric Name: pKd

[in] Request - read-out pKd | tested on UniProtKB Q05085 | molecule [O-][Cl+2]([O-])O [chlorate]
[out] ~2.30
